Here, each record is paired with measured growth inhibition data.
# experiment notes: NCI Yeast Anticancer Drug Screen. Data for the bub3 strain (AID 167)
# settings: S. cerevisiae bub3 mutant strain, at 50.0 µM, hits give high values
This is part of a sample that, as a whole, favours compounds with a hit. Of some 79,000 tested, about 15% had one in any assay.
Answer format: numeric, % implied, no suffix.

If you can, please state the reported growth inhibition value of C=CCn1c(=S)sc2c(=O)[nH]cnc21 .
8.15

How about C[C@H](N)C(O)/C=C/c1ccccc1 (stereo not given in full) ?
-0.3

NC(=O)c1c(N)nnc(-c2ccccc2)c1-c1ccccc1 ?
-3.45

Further cases:
Item CCc1ccc(NC(=O)CCC(=O)O)cc1 has what recorded growth inhibition?
-4.9

Another compound: O=C(c1ccccc1)c1ccncc1
-1.9

Now the same for COc1ccc2ccccc2c1Br
-19.3

Likewise for CC(=O)Oc1cccc2c1C(=O)c1ccccc1C2=O ?
11.3

// next record O=c1ccc2cc3ccoc3c(OCCOCCOCCOCCOc3c4occc4cc4ccc(=O)oc34)c2o1
3.5

Can you handle Cc1ccc(NC(=O)Nc2cccc(C(F)(F)F)c2)cc1NC(=O)Nc1cccc(C(F)(F)F)c1 next?
-6.6

Would you mind doing CCOC(=O)NC(C(F)(F)F)(C(F)(F)F)P(=O)(OC(C)C)OC(C)C as well?
3.65

# repeat for O=c1c2ccccc2nc(-c2ccccc2)n1-c1cc(C(F)(F)F)cc(C(F)(F)F)c1
4

----------
# experiment notes: NCI Yeast Anticancer Drug Screen. Data for the sgs1 mgt1 strain (AID 161);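 note: 0% = growth of cultures given vehicle only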
# settings: S. cerevisiae sgs1 mgt1 strain, at 50.0 µM, hits give high values
About 79,000 compounds went through this panel and 15% of them were active in at least one assay; those are over-represented in the sample as a whole.
So basically: growth inhibition at 20% or higher? That is yes. Lower than 20%? That is no.

Decide: is the reported value of growth inhibition for CCOC(=O)C(=CNc1ccc(F)c(F)c1)C(=O)OCC equal to or greater than 20%?
no

Now the same for O=c1cc(CO)oc(C(Nc2cccc(Cl)c2)c2ccccc2)c1O (configuration not stated)
yes

Also need CC(=O)OC1CCCCCCC1 , thanks.
no

Others:
growth inhibition >= 20% for CCCCOC(=O)/C=C\C(=O)NC(=O)NC(C)(C)C ?
no

Request: CCCCCCC(=O)OC(C)CC(C)C (configuration not stated)
no

COCCCN1CC(=O)N2Cc3ccccc3CN2C(=O)C1 ?
no

Here is the next compound: COc1cc(N2C(=O)CSC2=S)cc(OC)c1OC
yes

----------
# experiment notes: NCI Yeast Anticancer Drug Screen. Data for the bub3 strain (AID 167)
# settings: S. cerevisiae bub3 mutant strain, at 50.0 µM, hits give high values
This is part of a sample that, as a whole, favours compounds with a hit. Of some 79,000 tested, about 15% had one in any assay.
measured metric: growth inhibition (%)
Express your answer in %, writing the number without its unit.

Could you tell me which growth inhibition is on file for CC1([C@H]2CC[C@H]3[C@@H]4CC[C@H]5OC(=O)CC[C@]5(C)[C@H]4CC[C@]23C)SCCS1 ?
8.55

----------
# experiment notes: NCI Yeast Anticancer Drug Screen. Data for the bub3 strain (AID 167)
# settings: S. cerevisiae bub3 mutant strain, at 50.0 µM, hits give high values
Compounds without any hit were thinned out: in the full panel of roughly 79,000, 15% have a hit.
measured metric: growth inhibition (%)
Kindly provide the numeric value in % only, without the unit symbol.

Past entries and their recorded results:
Param item = CN1CCCCC1C[CH2][Sn]([c]1ccccc1)([c]1ccccc1)[c]1ccccc1 (configuration not stated) ; retrieve measured growth inhibition.
99.2

Further, for Cc1c(O)cccc1C(=O)C[n+]1ccccc1 ?
-6.9

Could you do the same for Nc1ccc(OCCCc2c(N)nc(N)nc2N)c(Cl)c1 , please?
98.3

Do the same for Clc1cccc(Cl)c1C1SCc2nc3ncccc3n21 (configuration not stated) please
10.6

Thanks! And CCOC(=O)C(/C=N/C(=S)Nc1c(C)cccc1C)=C(/O)c1ccccc1 ?
-21.2

More entries:
I have this compound here, SC1CCCN(Cc2ccccc2)C1 (configuration not stated) , and I need its recorded growth inhibition.
8.9

Can you handle C=CCNC(=S)N1CC(C)C(=O)Nc2ccccc21 (configuration not stated) next?
11.3

Repeat with COc1cc(C(C)c2cc3c(cc2OCCNC(=O)COc2cc4c(cc2C(C)c2cc(OC)c(OC)c(OC)c2)OCO4)OCO3)cc(OC)c1OC (configuration not stated)
-19.6

Subsequent entry: Cc1ccc(O)c(C2CC(C#N)CCN2C)c1 (configuration not stated)
-18.9

Subsequent entry: C=CC[Si](CC=C)(CC=C)OCC
-6

Now this one: CC(C)Oc1c(N(C)CCO)c2cc(Cl)ccc2oc1=O
5.75
